TEST_SYSTEM: hCB1R (Homo sapiens)
Sequence (P21554 whole entry): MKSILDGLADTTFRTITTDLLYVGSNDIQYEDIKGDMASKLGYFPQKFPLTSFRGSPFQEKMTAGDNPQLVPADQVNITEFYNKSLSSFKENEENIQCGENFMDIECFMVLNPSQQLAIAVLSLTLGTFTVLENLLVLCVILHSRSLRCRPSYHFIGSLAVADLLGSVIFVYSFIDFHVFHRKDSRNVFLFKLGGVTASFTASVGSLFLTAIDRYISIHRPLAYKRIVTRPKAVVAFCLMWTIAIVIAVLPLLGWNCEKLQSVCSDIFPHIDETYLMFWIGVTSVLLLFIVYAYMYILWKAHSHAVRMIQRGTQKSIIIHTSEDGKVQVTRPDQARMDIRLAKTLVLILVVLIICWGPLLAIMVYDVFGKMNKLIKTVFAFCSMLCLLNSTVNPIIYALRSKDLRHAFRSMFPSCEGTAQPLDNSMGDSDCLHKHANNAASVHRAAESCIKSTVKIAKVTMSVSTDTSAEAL
EXPERIMENT_NOTES: In vitro functional assay (FLIPR, intracellular Ca2+) with recombinant HEK293 cells, CB1
Format: cell-based
Design: expressed in transfected cells; host or cells: HEK293
REPORTED_CONDITIONS: recombinant HEK293 cells expressing CB1 and Galpha16; 20 min preincubation, then reference agonist; Ca2+ change; read-out: hCB1R: FLIPR; IC50
pIC50: −log10 of the molar value.
Please use YES whenever pIC50 is not below 8, and NO whenever it is.

COMPOUND: COC(=O)c1ccc(Nc2cc(F)ccc2CN2C(=O)N(c3ccc(F)c(C(F)(F)F)c3)C(=O)C2(C)C)cn1 [Example 255]
TEST_SYSTEM: hCB1R (Homo sapiens)
ANSWER_LABEL: NO
//
COMPOUND: CC1(C)C(=O)N(c2ccc(C#N)c(C(F)(F)F)c2)C(=O)N1Cc1ccccc1Nc1ccc(N)c(F)c1 [Example 95]
TEST_SYSTEM: hCB1R (Homo sapiens)
ANSWER_LABEL: NO
//
COMPOUND: CC1(C)C(=O)N(c2ccc(F)c(C(F)(F)F)c2)C(=O)N1Cc1ccc(F)cc1Nc1ccc2c(c1)CCC2=O [Example 206]
TEST_SYSTEM: hCB1R (Homo sapiens)
ANSWER_LABEL: NO
//
COMPOUND: CC1(C)C(=O)N(c2ccc(C#N)c(C(F)(F)F)c2)C(=O)N1Cc1cc(Cl)cc(Cl)c1Nc1ccc(Cl)cc1 [Example 40]
TEST_SYSTEM: hCB1R (Homo sapiens)
ANSWER_LABEL: NO
//
COMPOUND: COC(=O)CNc1ccc(Nc2ccccc2CN2C(=O)N(c3ccc(C#N)c(C(F)(F)F)c3)C(=O)C2(C)C)cc1 [Example 177]
TEST_SYSTEM: hCB1R (Homo sapiens)
ANSWER_LABEL: YES
//
COMPOUND: CC1(C)C(=O)N(c2ccc(C#N)c(C3CC3)c2)C(=O)N1Cc1ccc(F)cc1Nc1ccc(C(=O)O)cc1 [Example 159]
TEST_SYSTEM: hCB1R (Homo sapiens)
ANSWER_LABEL: YES
//
COMPOUND: CC1(C)C(=O)N(c2ccc(C#N)c(C(F)(F)F)c2)C(=O)N1Cc1ccccc1Nc1ccc2cc(C(=O)O)ccc2c1 [Example 209]
TEST_SYSTEM: hCB1R (Homo sapiens)
ANSWER_LABEL: NO
//
COMPOUND: CC1(C)C(=O)N(c2ccc(C#N)c(C(F)(F)F)c2)C(=O)N1Cc1ccccc1Nc1ccc(Cl)c(Cl)c1 [Example 20]
TEST_SYSTEM: hCB1R (Homo sapiens)
ANSWER_LABEL: NO
//
COMPOUND: CC1(C)C(=O)N(c2ccc(C#N)c(C(F)(F)F)c2)C(=O)N1Cc1ccccc1Nc1ccc(Cl)cc1 [Example 4]
TEST_SYSTEM: hCB1R (Homo sapiens)
ANSWER_LABEL: YES
//
COMPOUND: COC(=O)C(Cc1ccc(Nc2ccccc2CN2C(=O)N(c3ccc(C#N)c(C(F)(F)F)c3)C(=O)C2(C)C)cc1)C(=O)OC [Example 232]
TEST_SYSTEM: hCB1R (Homo sapiens)
ANSWER_LABEL: NO
//
COMPOUND: CC1(C)C(=O)N(c2ccc(C#N)c(C(F)(F)F)c2)C(=O)N1Cc1ccccc1Nc1cccc(Cl)c1 [Example 22]
TEST_SYSTEM: hCB1R (Homo sapiens)
ANSWER_LABEL: NO
